System: corneal neovascularization
Assay: Corneal neovascularization induced by alkali burn in BALB/c mice
Format: in vivo
Design: concentration or dose not given beside the values
Settings: day 14 after alkali burn, vitreous injection once a day for 1 week
Peptide text beside a SMILES is read from it. * marks the point of attachment. X74 = O=C1C=CC(=O)N1c1cccc(CCCCCCCCCCC(=O)*)c1; X46 = O=C1C=CC(=O)N1c1cccc(CCCCC(=O)*)c1; X75 = O=C1C=CC(=O)N1c1cccc(CC(=O)*)c1
Item-by-item account of Inhibition rate (corneal neovascularization)
measure: Inhibition rate (corneal neovascularization) (%)

1) C[C@H](NC(=O)CNC(=O)[C@H](CCCNC(=N)N)NC(=O)Cc1cccc(N2C(=O)C=CC2=O)c1)C(=O)N[C@@H](CC(=O)O)C(=O)N[C@@H](CCCNC(=N)N)C(=O)N[C@@H](C)C(=O)NCC(=O)NCC(=O)NCC(=O)NCC(=O)N[C@@H](CCCNC(=N)N)C(=O)NCC(=O)N[C@@H](CC(=O)O)C(=O)O [X25] (X75-RGADRAGGGGRGD-OH): 52.90
2) C[C@H](NC(=O)CNC(=O)[C@H](CCCNC(=N)N)NC(=O)CCCCc1cccc(N2C(=O)C=CC2=O)c1)C(=O)N[C@@H](CC(=O)O)C(=O)N[C@@H](CCCNC(=N)N)C(=O)N[C@@H](C)C(=O)NCC(=O)NCC(=O)NCC(=O)NCC(=O)N[C@@H](CCCNC(=N)N)C(=O)NCC(=O)N[C@@H](CC(=O)O)C(=O)O [X28] (X46-RGADRAGGGGRGD-OH): 46.59
3) C[C@H](NC(=O)CNC(=O)[C@H](CCCNC(=N)N)NC(=O)CCCCCCCCCCc1cccc(N2C(=O)C=CC2=O)c1)C(=O)N[C@@H](CC(=O)O)C(=O)N[C@@H](CCCNC(=N)N)C(=O)N[C@@H](C)C(=O)NCC(=O)NCC(=O)NCC(=O)NCC(=O)N[C@@H](CCCNC(=N)N)C(=O)NCC(=O)N[C@@H](CC(=O)O)C(=O)O [X34] (X74-RGADRAGGGGRGD-OH): 48.36

Origin of the recorded values: patent US20200270309A1
